# credit: patent US7541463B2

# Tested on: human leukemia cell MOLT-4
# PROCEDURE DETAILS: Growth inhibition of MOLT-4 cells (MTT or SRB assay)
# Type: cell-based
# MEASUREMENT SETUP: 10^−8 M, read-out: Growth inhibition effect to MOLT-4 cell strain
# inhibition at 0.01 µM per entry
Numeric answer only, unit % assumed.

Consider the worked cases shown below.
CN(C)CCCn1c(=O)c2ccc3sc4ccccc4c4ccc(c1=O)c2c34 : 0
CCCCn1c(=O)c2ccc3sc4ccccc4c4ccc(c1=O)c2c34 : 1.1
CN(C)CCn1c(=O)c2ccc3sc4ccccc4c4ccc(c1=O)c2c34 : 0
CN(C)CCN1C(=O)c2cccc3c2c(cc2nc(-c4cccc([N+](=O)[O-])c4)sc23)C1=O : 0

Data point: `CN(C)CCN1C(=O)c2cccc3c2c(cc2nnsc23)C1=O` ; inhibition at 0.01 µM = 0

* * *

# inhibition at 100 µM per entry
# System: human leukemia cell MOLT-4
# PROCEDURE DETAILS: Growth inhibition of MOLT-4 cells (MTT or SRB assay)
# Type: cell-based
# MEASUREMENT SETUP: 10^−4 M, read-out: Growth inhibition effect to MOLT-4 cell strain
Numeric answer only, unit % assumed.

CN(C)CCCn1c(=O)c2ccc3sc4ccccc4c4ccc(c1=O)c2c34 : 100
CCCCn1c(=O)c2ccc3sc4ccccc4c4ccc(c1=O)c2c34 : 100
CN(C)CCN1C(=O)c2cccc3c2c(cc2nc(-c4cccc([N+](=O)[O-])c4)sc23)C1=O : 95.1
CN(C)CCN1C(=O)c2cccc3c2c(cc2nnsc23)C1=O : 100

Next, consider the following compound.
Assay human leukemia cell MOLT-4, sample `CN(C)CCn1c(=O)c2ccc3sc4ccccc4c4ccc(c1=O)c2c34` , inhibition at 100 µM read: 100

* * *

# System: mice leukemia cell P388
# PROCEDURE DETAILS: Growth inhibition of P388 cells, MTT assay
# Assay type: cell-based
# MEASUREMENT SETUP: Mus musculus, 10^−6 M, read-out: Growth inhibition effect to P388 cell strain
Binary call on inhibition at 1 µM: true (1) from 40% upward, false (0) beneath that.

Cc1ccc(-c2nc3cc4c5c(cccc5c3s2)C(=O)N(CCN(C)C)C4=O)cc1 : true (1)
CN(C)CCN1C(=O)c2cccc3c2c(cc2nc(-c4ccccc4)sc23)C1=O : true (1)
CN(C)CCN1C(=O)c2cccc3c2c(cc2c4ccccc4sc32)C1=O : true (1)
CN(C)CCCN1C(=O)c2cccc3c2c(cc2c4ccccc4sc32)C1=O : false (0)
CCCCN1C(=O)c2cccc3c2c(cc2c4ccccc4sc32)C1=O : false (0)

Hi team, for `O=C1c2cccc3c2c(cc2nnsc23)C(=O)N1CCN1CCNCC1` , is the recorded inhibition at 1 µM at or above 40%? false (0)

Hi team, for `CN(C)CCN1C(=O)c2cccc3c2c(cc2nc(-c4ccccc4Cl)sc23)C1=O` , is the recorded inhibition at 1 µM at or above 40%? true (1)

Hi team, for `CN(C)CCCn1c(=O)c2ccc3sc4ccccc4c4ccc(c1=O)c2c34` , is the recorded inhibition at 1 µM at or above 40%? false (0)

Hi team, for `O=c1c2ccc3sc4ccccc4c4ccc(c(=O)n1CCN1CCNCC1)c2c34` , is the recorded inhibition at 1 µM at or above 40%? false (0)

Hi team, for `CN(C)CCn1c(=O)c2ccc3sc4ccccc4c4ccc(c1=O)c2c34` , is the recorded inhibition at 1 µM at or above 40%? false (0)
